study_system: T1, CD300c antigen (11832-H08H, Sino Biological) (human, UniProt Q08708 21-183)
T1 construct: Bought antigen; also called CD300c protein; CD300 antigen-like family member C
T1 sequence (looked up): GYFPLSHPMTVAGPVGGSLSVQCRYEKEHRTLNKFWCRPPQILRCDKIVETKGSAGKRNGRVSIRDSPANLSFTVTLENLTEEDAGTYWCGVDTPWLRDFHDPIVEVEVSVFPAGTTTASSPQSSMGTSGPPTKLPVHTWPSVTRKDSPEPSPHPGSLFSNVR
procedure_text: binding ELISA, plate coated with CD300c antigen (8 µg/mL), HRP anti-Fc IgG detection
measured_property: EC50 (µg/mL)
Numbers only here, please. The scale is µg/mL.

Worked examples follow.
- binder: "CL7 (antibody, V domains shown, detected with anti-human IgG (H+L) and anti-Fc IgG; also called anti-CD300c monoclonal antibody CL7; anti-CD300c monoclonal antibody (CL7)) VH: EVQLLESGGGLVQPGGSLRLSCAASGFTFSRYAMSWVRQAPGKGLEWVSAISGSGGSTYYADSVKGRFTISRDNSKNTLYLQMNSLRAEDTAVYYCARSSQGIFDIWGQGTLVTVSS VL: QSVLTQPPSASGTPGQRVTISCSGNNIGTRRVHWYQQLPDTAPKLLIYSKNNRPSGVPDRFSGSKSGTSASLAISGLRSEDEADYYCAAWDDSLSGPVFGGGTKLTVL"
  EC50 [µg/mL]: 0.047
- binder: "SK16 (antibody, V domains shown, also called anti-CD300c monoclonal antibody SK16; CB301 antibody SK16) VH: RVQLLESGGGLVQPGGSLRLSCAASGFTFSSYAMSWVRQAPGKGLEWVSAINGSGGSTLYADSVKGRFTISRDNSKNTLYLQMNSLRAEDTAVYYCARGVSGFDSWGQGTLVTVSS VL: EIVLTQSPGTLSLSPGERATLSCRISQSISSYLNWYQQKPGQAPRLLIYDASLRATGIPDRFSGSGSGTDFTLTISRLEPEDFAVYYCQQSYKTPITFGQGTKVEIK"
  EC50 [µg/mL]: 2.42

Turning to the following binder.
-- ask Tell me measured EC50 for SK13 (antibody, V domains shown, also called anti-CD300c monoclonal antibody SK13; CB301 antibody SK13) VH: RVQLLESGGGLVQPGGSLRLSCAASGFTFSDYAMSWVRQAPGKGLEWVSSISSSSSYIYYTDSVKGRFTISRDNSKNTLYLQMNSLRAEDTAVYYCARGGYGFDYWGQGTLVTVSS VL: EIVLTQSPGTLSLSPGERATLSCRASQSISSYLNWYQQKPGQAPRLLIYSASSRPQGIPDRFSGSGSGTDFTLTISRLEPEDFAVYYCQQYDDLPFTFGQGTKVEIK please.
-- reply 0.044
